Assay: in vitro
Conditions: human, A549 cells
ENDPOINT NAME: selectivity ratio

>>> result("CC1=C(c2ccc(O)cc2)[C@H](c2ccc(OCCN3CCCCC3)cc2)Oc2ccccc21")
19
>>> result("CC/C(=C(/c1ccc(NC(=O)C2CCN(C)CC2)cc1)c1ccc(OCCN2CCCC2)cc1)c1ccccc1")
12
>>> result("Oc1ccc2c(Oc3ccc(OCCN4CCCCC4)cc3)c(-c3ccccc3)sc2c1")
20
>>> result("CC/C(=C(/c1ccc(N)cc1)c1ccc(OCCN2CCCC2)cc1)c1ccccc1")
13
>>> result("CCC(c1ccccc1)C(O)(c1ccc(OCCN(C)C)cc1)c1cccc(O)c1 (centres undefined)")
9
>>> result("CC/C(=C(/c1ccc(NC(=O)C2CCN(C)C2)cc1)c1ccc(OCCN2CCCC2)cc1)c1ccccc1 (centres undefined)")
30
>>> result("CC/C(=C(/c1ccc(NC(=O)N2CCN(C)CC2)cc1)c1ccc(OCCN2CCCC2)cc1)c1ccccc1")
11
>>> result("Cc1ccccc1C(=O)c1sc2cc(O)ccc2c1Oc1ccc(OCCN2CC(CF)C2)cc1")
7
>>> result("Oc1ccc2c(Oc3ccc(OCCN4CCCCC4)cc3)c(-c3ccc(F)cc3)sc2c1")
7

====

System: A549
Format: cell-based
Details: human
ENDPOINT NAME: CC50 (µM)

>>> numeric_readout("CC/C(=C(/c1ccc(NC(=O)C2CCN(C)C2)cc1)c1ccc(OCCN2CCCC2)cc1)c1ccccc1 (configuration not stated)")
11.8
>>> numeric_readout("CCC(=C(c1ccc(OCCN2CCCC2)cc1)c1ccc(OCCN2CCCC2)cc1)c1ccccc1")
8.1
